system: P. falciparum stage V gametocytes; design: BacTiter-Glo ATP luminescence viability of purified stage V gametocytes in 384-well plates, per cent inhibition versus DMSO; conditions: 48 h, 5 µM; inhibitor
The campaign covered roughly 13,000 compounds. About 3,200 (25%) showed an effect of 50% or more. The list shows a part of the results.
Measured % Inhibition by item
All answers are understood in %, so give the number only.

Examples with answers:
| molecule | recorded metric | readout units | observed measurement |
| --- | --- | --- | --- |
| Cc1nnc2c(NC(=O)NC3CCCC3)cc3ccc(-c4cccc(CN(C)C)c4)cc3n12 | % Inhibition | % | 62.95 |
| Cc1nnc2c(NC(=O)NC3CCCC3)cc3cc(-c4ccc(CN5CCCCC5)cc4)ccc3n12 | % Inhibition | % | 3.866 |
| OC(CNCc1cccc(Oc2ccc(Cl)cc2)c1)c1cc(C(F)(F)F)cc(C(F)(F)F)c1 (stereo not shown) | % Inhibition | % | 49.58 |
| CN(C)CCCOc1cccc(NC(=O)Nc2ccc(Cl)c(Cl)c2)c1 | % Inhibition | % | -5.244 |
| O=C(/C=C/c1ccc(Cl)c(Cl)c1)NCCCCCCN1CCN(C(=O)Nc2cc(F)cc(F)c2)CC1 | % Inhibition | % | -49.78 |
| CS(=O)(=O)c1ccc(-c2nc(NCC3CCCCC3)cc(C(F)(F)F)n2)cc1 | % Inhibition | % | 3.227 |
| Cc1nnc2c(NC(=O)NC3CCCC3)cc3cc(-c4ccc(CN(C)C)cc4)ccc3n12 | % Inhibition | % | 88.82 |
| Cc1cc2c(NC(=O)NC3CCN(CCc4ccccc4Cl)CC3)cccc2cn1 | % Inhibition | % | -1.237 |
| Cc1cc(=O)oc2c1ccc1oc(C(O)c3ccc(Cl)cc3)c(C)c12 (stereo not shown) | % Inhibition | % | -9.04 |
| CC[C@H]1CN2CC[C@H]1C[C@H]2[C@H](O)c1cc(-c2ccc(Cl)c(Cl)c2)nc2ccc(OC)cc12 | % Inhibition | % | 98.02 |

Q) Lab note: need % Inhibition with P. falciparum stage V gametocytes for entry CCOC(=O)CN(c1ccc(Br)cc1OCCOc1cc(Br)ccc1N(CC(=O)OCC)C(C)C(=O)OCC)C(C)C(=O)OCC (stereo not shown) , please look it up.
A) 102

Q) Which measured % Inhibition belongs to `COC(=O)c1cccc(N2CCN(CCCNC(=O)/C(=C/C=C/c3cc4cc(Cl)c(Cl)cc4[nH]3)OC)CC2)c1` , tested on P. falciparum stage V gametocytes?
A) 20.82

Q) Checklist item: % Inhibition tested on P. falciparum stage V gametocytes, entry OC(CNCc1cccc(Oc2ccc(Cl)cc2)c1)c1cccc(C(F)(F)F)c1 (stereo not shown) , value?
A) -22.32

# credit: paper PMC4552634
